Value source: the kinase profiling compilation of Christmann-Franck et al. (2016)

# TARGET_OR_TEST_SYSTEM: INSRR (human)
# PROCEDURE_TEXT: radiometric filter-binding kinase assay
# TEST_PARAMETERS: compound 0.1 µM
ASSAY_ENDPOINT: residual activity (%)

1. Cc1cccc(-c2nn(C(=S)Nc3ccccc3)cc2-c2ccnc3ccccc23)n1
98
2. CC1=C(CO)C(=O)O[C@@H]([C@@H](C)[C@H]2CC[C@H]3[C@@H]4C[C@H]5O[C@]56[C@@H](O)C=CC(=O)[C@]6(C)C4CC[C@]23C)C1 (some centres undefined)
99
3. O=C(N[C@@H](COc1ccc2[nH]c(=O)[nH]c2c1)c1ccccc1)c1cccn(Cc2ccc(F)c(F)c2)c1=O
101
4. Cc1cc(NC(=O)c2cccc(NC(=O)/C=C/CN(C)C)c2)ccc1Nc1nccc(-c2cccnc2)n1
93
